FYI, the data here is from the supplement of paper PMC3545927.

assayTarget: furin, P09958;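 also: purified furin at 1:10 enzyme:substrate in 50 mM HEPES pH 7.5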
Sequence (P09958 whole entry): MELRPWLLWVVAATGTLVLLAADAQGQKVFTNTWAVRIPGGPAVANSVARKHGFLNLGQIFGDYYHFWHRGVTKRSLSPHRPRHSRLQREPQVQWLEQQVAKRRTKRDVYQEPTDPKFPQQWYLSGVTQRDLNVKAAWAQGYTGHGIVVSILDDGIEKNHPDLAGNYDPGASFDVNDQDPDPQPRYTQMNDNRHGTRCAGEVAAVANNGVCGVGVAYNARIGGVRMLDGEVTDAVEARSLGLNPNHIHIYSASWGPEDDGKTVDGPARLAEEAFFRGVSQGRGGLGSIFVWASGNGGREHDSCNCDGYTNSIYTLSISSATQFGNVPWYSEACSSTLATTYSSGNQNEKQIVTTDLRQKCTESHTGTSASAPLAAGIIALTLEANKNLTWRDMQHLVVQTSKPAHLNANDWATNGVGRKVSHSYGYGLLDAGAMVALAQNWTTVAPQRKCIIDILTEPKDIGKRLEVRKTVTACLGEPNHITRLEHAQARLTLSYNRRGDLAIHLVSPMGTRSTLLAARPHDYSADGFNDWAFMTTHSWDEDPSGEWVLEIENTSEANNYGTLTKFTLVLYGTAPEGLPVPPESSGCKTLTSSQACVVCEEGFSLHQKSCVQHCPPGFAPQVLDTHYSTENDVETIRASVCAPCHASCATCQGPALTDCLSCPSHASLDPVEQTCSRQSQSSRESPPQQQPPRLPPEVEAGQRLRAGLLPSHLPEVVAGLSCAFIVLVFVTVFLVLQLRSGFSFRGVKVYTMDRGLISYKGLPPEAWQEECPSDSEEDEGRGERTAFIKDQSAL
assay: furin cleavage Z-score vs untreated control; higher = more cleavage, active = 3.5 or more, inactive = 1 or less, 8 variable residues between constant flanks
conditionNotes: 30 min
Some of the results follow. The true hit rate is not given.
readoutKind: furin cleavage Z-score

CAHTWREKRLAGNASASA [FS-31]    0.0913
CAVVCCSMSNAGNASASA [HC2101]    0.764
CAVGGVEHRLAGNASASA [HC477]    0.304
CATTDCSGSWAGNASASA [HC1871]    -0.368
CAEHRLEAACAGNASASA [HC479]    -0.381
CAVEECSQHLAGNASASA [HC1670]    -0.342
CAIIKRSRRGAGNASASA [FS-1344]    7.28
CASTPRSKRLAGNASASA [FS-1091]    5.46
CARHWTTQGCAGNASASA [HC309]    0.176
CARRRRLRTAAGNASASA [FS-1786]    4.2
CAVQVRGKRLAGNASASA [FS-312]    7.68
CAEILRKSRRAGNASASA [HC1297]    -0.599
CADPLRPRREAGNASASA [FS-122]    4.87
CAARARNKREAGNASASA [FS-217]    7.52
CARQKREWIKAGNASASA [FS-2752]    9.03
CATTPCSHSWAGNASASA [HC1895]    -1.05
CAQYFLTRVEAGNASASA [HC584]    0.581
CAARAQAPPPAGNASASA [HC958]    -1.17
CAQKKRSAQYAGNASASA [FS-2878]    2.02
CARRRRPERVAGNASASA [FS-3064]    1.19
CARRRRYKKKAGNASASA [FS-2182]    -0.000733
CARKKRISANAGNASASA [FS-1827]    -0.0863
CARRRRYALSAGNASASA [FS-2801]    8.62
CARERKAGCKAGNASASA [DV2]    2.14
CARRRRLYWGAGNASASA [FS-1787]    -1.89
CATTYRSKRLAGNASASA [FS-886]    9.12
CASTPCSKHLAGNASASA [HC2534]    0.302
CAEKKRKFIKAGNASASA [FS-2119]    -0.629
CALASRRYRGAGNASASA [FS-547]    -0.101
CAGVPRSFRGAGNASASA [TR2]    -1.74
